These measurements were taken from PubChem BioAssay AID1159580.

# measurementDescription: chemical genetic growth profiling, strain panel (AID 1159580);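 note: tested at 20 µM; growth read once vehicle control cultures reached saturation at 30 °C; 1 = growth at the plate median or of vehicle wells; lower values mean less growth of the strain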
# experimentalSetup: S. cerevisiae deletion strains, growth OD, locus YJR066W, strain TOR1, hits give low values
The whole screen tested about 5,500 compounds, of which about 2,000 (36%) were called active. About 18% were inconclusive and are not listed. The list shows a part of the results.

compound	normalized growth
CSC(=NNc1ccccc1)NC(=O)c1c(Cl)cccc1Cl	0.968 (inactive)
CC(CN(C)C)CN1c2ccccc2Sc2ccccc21 (centres undefined)	0.937 (inactive)
CN(C(=O)CN(CCO)CC(=O)N(C)C(C)(C)Cc1ccccc1)C(C)(C)Cc1ccccc1	0.977 (inactive)
CCCCCC1C(=O)CCC1CC(=O)OC (centres undefined)	0.982 (inactive)
O=c1[nH]cnc2[nH]ncc12	0.974 (inactive)
Oc1ccc(N=Nc2ccccn2)c(O)c1	0.114 (active)
NNCCc1ccccc1	0.945 (inactive)
CS(=O)(=O)/C(C#N)=C/c1ccccc1OCc1c(Cl)cccc1Cl	1.04 (inactive)
CC(CCC(=O)O)[C@H]1CCC2C3C(C[C@H](O)[C@@]21C)[C@@]1(C)CC[C@@H](O)C[C@H]1C[C@H]3O (some centres undefined)	0.93 (inactive)
N[C@@H]1[C@@H](O)[C@H](O)[C@@H](CO)O[C@H]1O	0.937 (inactive)
CSc1ccc2c(c1)N(CCC1CCCCN1C)c1ccccc1S2 (centres undefined)	0.937 (inactive)
C[C@@H](N)[C@@H](O)c1ccccc1	0.942 (inactive)
CN1CC(CNC(=O)OCc2ccccc2)CC2c3cccc4c3c(cn4C)CC21 (centres undefined)	0.877 (inactive)
CCN(CC)C(C)CN1c2ccccc2Sc2ccccc21 (centres undefined)	0.872 (inactive)
CNC(=O)Oc1ccc2c(c1)[C@]1(C)CCN(C)[C@@H]1N2C	0.954 (inactive)
O=C1/C(=C/c2ccc(C(F)(F)F)cc2)COc2ccccc21	0.817 (inactive)
C[C@H]1CC2C([C@@H](O)C[C@@]3(C)C2CC[C@]3(O)C(=O)COC(=O)CCC(=O)O)[C@@]2(C)C=CC(=O)C=C12 (some centres undefined)	1 (inactive)
Cc1nc2sccn2c(=O)c1CCN1CCC(=C(c2ccc(F)cc2)c2ccc(F)cc2)CC1	0.965 (inactive)
O=c1cc(-c2ccc(O)cc2)oc2cc(O)cc(O)c12	0.954 (inactive)
O=C(O)c1ccccc1C(=O)Nc1ccc(S(=O)(=O)Nc2nccs2)cc1	0.983 (inactive)
CCN(CCCc1ccccc1)CCCc1ccccc1	0.985 (inactive)
c1ccc2c(c1)CN1CCCC1=N2	0.989 (inactive)
Nc1cc(-c2ccncc2)c[nH]c1=O	0.973 (inactive)
COc1ccc(C(=O)NCc2csc3ccc(Cl)cc23)cc1OC	1.07 (inactive)
O=C(O)CCC(=O)Nc1ccc(S(=O)(=O)Nc2nccs2)cc1	0.998 (inactive)
CC(C)CCCC(C)C1CCC2C3CC[C@H]4CCCC[C@]4(C)C3CC[C@]12C (some centres undefined)	0.931 (inactive)
C[C@@H]1CC2C3C[C@H](F)C4=CC(=O)C=C[C@]4(C)[C@@]3(F)[C@@H](O)C[C@]2(C)[C@@]1(O)C(=O)COC(=O)C(C)(C)C (some centres undefined)	0.944 (inactive)
O=C1/C(=C/c2cccs2)COc2ccccc21	0.762 (inactive)
CC12CC3CC(C)(C1)CC(N)(C3)C2	0.923 (inactive)
Cc1cc(O)c(C=O)c2c1C(=O)Oc1c(COC(=O)/C=C/C(=O)O)c(O)c(C(=O)O)c(C)c1O2	0.931 (inactive)
CC(=O)Nc1nnc(S(N)(=O)=O)s1	0.97 (inactive)
CC(CCC(=O)O)[C@H]1CCC2C3CC[C@@H]4CCCC[C@]4(C)C3CC[C@@]21C (some centres undefined)	1.06 (inactive)
CC(=O)N=c1sc(S(N)(=O)=O)nn1C	0.984 (inactive)
Nc1ccncc1	0.917 (inactive)
COC(=O)CCC(C)C1CCC2C3CC[C@@H]4C[C@H](O)CC[C@]4(C)C3C[C@H](O)[C@]12C (some centres undefined)	0.941 (inactive)
COc1cc2c(cc1-c1cc3cc4ccoc4cc3oc1=O)OCO2	0.942 (inactive)
O=c1cc(-c2ccccc2)oc2c(O)c(O)ccc12	0.985 (inactive)
Cc1c(S(=O)(=O)c2ccc(Cl)cc2)csc1C(=O)NNc1cccc(Cl)c1	0.872 (inactive)
Cc1cc2c(C(C)C)c(O)c(O)c(C=O)c2c(O)c1-c1c(C)cc2c(C(C)C)c(O)c(O)c(C=O)c2c1O	0.993 (inactive)
C[C@H](CCC(=O)O)[C@H]1CCC2C3C(CC[C@@]21C)[C@@]1(C)CC[C@@H](O)C[C@H]1C[C@@H]3O (some centres undefined)	0.937 (inactive)
Cc1cc(O)c(C=O)c2c1C(=O)Oc1c(C)c(O)c3c(c1O2)C(O)OC3=O (centres undefined)	0.965 (inactive)
Cc1nc2ccccn2c(=O)c1CCN1CCC(C(=O)c2ccc(F)cc2)CC1	0.993 (inactive)
CC(=O)O[C@H]1C[C@@H](OC(C)=O)C(C)(C)C2CC(=O)[C@]3(C)C(CC[C@@]4(C)[C@H](c5ccoc5)OC(=O)[C@H]5O[C@]543)[C@]21C (some centres undefined)	0.915 (inactive)
Cc1cc(=O)oc2c(O)c(O)ccc12	0.94 (inactive)
